test system: WI-38; assay: Antiproliferative activity against human WI38 cells after 48 hrs by MTT assay; assay type: cell-based; details: WI-38, 48 h
endpointName: IC50

The recorded IC50 for entry CCN(CC)CCCNc1nc2ccccc2nc1-c1nc2c(ccc3ccccc32)o1 equals 14.7 µM

Value of measured IC50 for the entry c1ccc2nc(-c3nc4ccccc4[nH]3)c(NCCN3CCOCC3)nc2c1 : > 100 µM

GET /value?item= c1ccc2nc(-c3nc4ccccc4o3)c(NCCCN3CCOCC3)nc2c1 &field=IC50 returns > 100 µM

Query c1ccc2nc(-c3nc4ccccc4s3)c(NCCCN3CCOCC3)nc2c1 yields IC50 of > 100 µM

Kindly note the recorded IC50 for c1ccc2nc(-c3nc4ccccc4o3)c(NCCN3CCOCC3)nc2c1 , which is > 100 µM

The compound listed as CN(C)CCCNc1nc2ccccc2nc1-c1nc2c(ccc3ccccc32)o1 has a reported IC50 of 16.4 µM

Lab book: IC50 of c1ccc2nc(-c3nc4ccccc4[nH]3)c(NCCCN3CCOCC3)nc2c1 noted as > 100 µM

Consider CC[C@@]1(O)C(=O)OCc2c1cc1n(c2=O)Cc2cc3ccccc3nc2-1 . Its measured IC50 is 8.37 µM

Entry c1ccc2nc(-c3nc4ccccc4s3)c(NCCN3CCOCC3)nc2c1 ; IC50 = > 100 µM
